Assign CC50 at 72 h to each entry below.
Assay: Cytotoxicity against human HuH5.2 cells assessed as reduction in cell viability after 72 hrs by MTS assay
Assay type: cell-based, Huh-5-2
Give bare numbers, in µM.

The compound CC(C)(C)c1ccc(S(=O)(=O)NCCCN2CCN(CCCNS(=O)(=O)c3ccccc3)CC2)cc1 showed CC50 at 72 h equal to 20.5

***
CC50 at 72 h in this record for O=S(=O)(NCCCN1CCN(CCCNS(=O)(=O)c2ccc(-c3ccccc3)cc2)CC1)c1ccc(-c2ccccc2)cc1 : 4.9

###

Please provide measured CC50 at 72 h for the entries that follow.
Assay: Cytotoxicity against human HuH5.2 cells assessed as reduction in cell viability after 72 hrs by MTS assay
Type: cell-based, Huh-5-2

Recorded result, O=[N+]([O-])c1ccc(S(=O)(=O)NCCCN2CCN(CCCNS(=O)(=O)c3ccc([N+](=O)[O-])cc3)CC2)cc1 , CC50 at 72 h: 77.4 µM

Item: O=S(=O)(NCCCN1CCN(CCCNS(=O)(=O)c2ccc(-c3ccccc3)cc2)CC1)c1ccccc1 | CC50 at 72 h: 14 µM

Memo: O=S(=O)(NCCCN1CCN(CCCNS(=O)(=O)c2cccc3ccccc23)CC1)c1cccc2ccccc12 , reported CC50 at 72 h: > 172 µM

Provide CC50 at 72 h for all items below, preserving their order.
1. COc1ccc(OC)c(S(=O)(=O)NCCCN2CCN(CCCNS(=O)(=O)c3cc(OC)ccc3OC)CC2)c1
2. Cc1ccc(C(=O)C2=C(O)C(=O)N(Cc3ccco3)C2c2cccc(Cl)c2)o1 (stereo not given)
3. O=S(=O)(NCCCN1CCN(CCCNS(=O)(=O)c2ccc(C(F)(F)F)cc2)CC1)c1ccc(C(F)(F)F)cc1
4. CC(C)(C)c1ccc(S(=O)(=O)NCCCN2CCN(CCCNS(=O)(=O)c3ccc(Cl)cc3)CC2)cc1

Result:
> 83.2 µM
> 126 µM
> 162 µM
8.77 µM

Dear colleague, could you please provide CC50 at 72 h for the compounds listed below?
1. Cc1ccc(S(=O)(=O)NCCCN2CCN(C(=O)CCNS(=O)(=O)c3ccc(C)cc3)CC2)cc1
2. O=S(=O)(NCCCN1CCN(CCCNS(=O)(=O)c2cccc(Cl)c2)CC1)c1cccc(Cl)c1
3. O=[N+]([O-])c1ccc(S(=O)(=O)NCCN2CCN(CCNS(=O)(=O)c3ccc([N+](=O)[O-])cc3)CC2)cc1

Result:
> 191 µM
> 182 µM
> 184 µM

Working through the 7 compounds below one at a time, give CC50 at 72 h for each.
1. CC(C)(C)c1ccc(S(=O)(=O)NCCCN2CCN(CCCNS(=O)(=O)c3ccc(-c4ccccc4)cc3)CC2)cc1
2. CC(C)(C)c1ccc(S(=O)(=O)NCCCN2CCN(CCCNS(=O)(=O)c3ccc(C(C)(C)C)cc3)CC2)cc1
3. O=S(=O)(NCCCN1CCN(CCCNS(=O)(=O)c2ccc(Cl)cc2)CC1)c1ccc(Cl)cc1
4. O=S(=O)(NCCCN1CCN(CCCNS(=O)(=O)c2ccc(-c3ccccc3)cc2)CC1)c1ccc(Cl)cc1
5. Cc1ccc(S(=O)(=O)NCCCN2CCN(CCCNS(=O)(=O)c3ccc(Cl)cc3)CC2)cc1
6. Cc1ccc(S(=O)(=O)NCCCN2CCN(CCCNS(=O)(=O)c3ccc(C)cc3)CC2)cc1
7. CC(=O)c1ccc(NC(=O)CSc2nnc(NC(=O)CCc3ccccc3)s2)cc1

Result:
4.78 µM
97.2 µM
> 182 µM
4.43 µM
48.8 µM
> 197 µM
> 113 µM

Hey, can you go through the list below and give me CC50 at 72 h for every item?
1. O=c1nc2n(-c3cccc(Br)c3)c3ccccc3cc-2c(=O)[nH]1
2. O=C(NCCCN1CCN(CCCNC(=O)c2ccc(Cl)cc2)CC1)c1ccc(Cl)cc1

Result:
> 136 µM
> 209 µM

###

Experiment: Cytotoxicity against human HuH5.2 cells assessed as reduction in cell viability after 72 hrs by MTS assay
Assay type: cell-based, Huh-5-2
Measure Name: CC50 at 72 h

CC50 at 72 h for O=S(=O)(NCCCN1CCCCC1)c1ccc(Cl)cc1 is 145 µM

CC50 at 72 h recorded for this compound, O=S(=O)(NCCCN1CCN(CCNS(=O)(=O)c2ccccc2)CC1)c1ccccc1 , is > 214 µM

I need CC50 at 72 h for every entry listed below, if you could help.
1. CCOC(=O)c1ccc(S(=O)(=O)NCCCN2CCN(CCCNS(=O)(=O)c3ccc(C(=O)OCC)cc3)CC2)cc1
2. COc1ccc(S(=O)(=O)NCCCN2CCN(CCCNS(=O)(=O)c3ccc(OC)cc3)CC2)cc1
3. O=S(=O)(NCCCN1CCN(CCCNS(=O)(=O)c2cccc3cccnc23)CC1)c1cccc2cccnc12
4. O=S(=O)(NCCN1CCN(CCNS(=O)(=O)c2ccccc2)CC1)c1ccccc1
5. Cc1ccc(S(=O)(=O)NCCN2CCN(CCNS(=O)(=O)c3ccc(C)cc3)CC2)cc1

Result:
1: > 160 µM; 2: > 92.5 µM; 3: > 172 µM; 4: > 110 µM; 5: > 104 µM

The following compounds each have a reported value; give each one's CC50 at 72 h.
1. CC(C)(C)c1ccc(S(=O)(=O)NCCCN2CCN(C(=O)CCNS(=O)(=O)c3ccc(C(C)(C)C)cc3)CC2)cc1
2. O=S(=O)(NCCCN1CCN(CCCNS(=O)(=O)c2ccc(Cl)cc2)CC1)c1ccccc1

Result:
1: 20.8 µM; 2: 81.5 µM

###

Assay: Cytotoxicity against human HuH5.2 cells assessed as reduction in cell viability after 72 hrs by MTS assay
Assay type: cell-based, Huh-5-2
Can you tell me CC50 at 72 h for the items I'm about to list?
Enter the number, and then the unit.

Check out these entries, answers already filled in.
Kindly note the recorded CC50 at 72 h for O=S(=O)(NCCNc1ccc(NCCNS(=O)(=O)c2ccc(Cl)cc2)cc1)c1ccc(Cl)cc1 , which is 22 µM

Looking up O=C(CCNS(=O)(=O)c1ccc(-c2ccccc2)cc1)N1CCN(CCCNS(=O)(=O)c2ccc(-c3ccccc3)cc2)CC1 , I see its CC50 at 72 h listed as 66.9 µM

Now for another entry.
So for O=S(=O)(NCCCN1CCN(CCCNS(=O)(=O)c2ccc3ccccc3c2)CC1)c1ccc2ccccc2c1 , the logged CC50 at 72 h turned out to be 49.9 µM

###

Assay: Binding affinity to HCV genotype 2A JFH1 protease domain truncated NS3 helicase by fluorescence assay
Design: species or system Hepatitis C virus JFH-1
Measure Name: pKd
Numbers only, as −log10 of the molar value.

Notebook: CC(C)(C)c1ccc(S(=O)(=O)NCCCN2CCN(CCCNS(=O)(=O)c3ccc(-c4ccccc4)cc3)CC2)cc1 , pKd read as 6.24

###

Experiment: Inhibition of HCV NS3 helicase DNA unwinding activity using fluorescent DNA substrate by molecular beacon assay
Design: species or system Hepacivirus hominis
Measure Name: pIC50
Give bare numbers, as −log10 of the molar value.

Value of measured pIC50 for the entry Cc1ccc2nc(-c3ccc4nc(-c5ccc(N)cc5)sc4c3)sc2c1S(=O)(=O)O : 5.00

Lookup result for O=S(=O)(NCCCN1CCN(CCCNS(=O)(=O)c2ccc(-c3ccccc3)cc2)CC1)c1ccc(-c2ccccc2)cc1 ; measured pIC50: 3.20

// sample CC(C)(C)c1ccc(S(=O)(=O)NCCCN2CCN(CCCNS(=O)(=O)c3ccc(C(C)(C)C)cc3)CC2)cc1 , its pIC50 was 3.51

Kindly give each listed record's pIC50.
1. CC(C)(C)c1ccc(S(=O)(=O)NCCCN2CCN(CCCNS(=O)(=O)c3ccc(Cl)cc3)CC2)cc1
2. O=S(=O)(NCCN1CCN(CCNS(=O)(=O)c2ccc(Cl)cc2)CC1)c1ccc(Cl)cc1
3. O=C(O)C1=CC(=C(c2ccc(O)c(C(=O)O)c2)c2ccc(O)c(C(=O)O)c2)C=CC1=O

Result:
1. 3.51
2. 3.60
3. 6.52

molecule CC(C)(C)c1ccc(S(=O)(=O)NCCCN2CCN(CCNS(=O)(=O)c3ccc(C(C)(C)C)cc3)CC2)cc1 , pIC50 observed: 3.77

###

Experiment: Inhibition of HCV NS3 helicase DNA unwinding activity using fluorescent DNA substrate by molecular beacon assay
Set-up: species or system Hepacivirus hominis
Would you mind telling me the reported pIC50 of each entry?
Give bare numbers, as −log10 of the molar value.

Some entries whose results are on file:
Entry CC(C)(C)c1ccc(S(=O)(=O)NCCCN2CCN(CCCNS(=O)(=O)c3ccc(-c4ccccc4)cc3)CC2)cc1 — recorded pIC50 = 4.05

get_value(item= O=S(=O)(NCCCCN1CCN(CCCCNS(=O)(=O)c2ccc(Cl)cc2)CC1)c1ccc(Cl)cc1 , readout=pIC50) returns 3.10

Given item O=S(=O)(NCCCN1CCN(CCCNS(=O)(=O)c2ccc3ccccc3c2)CC1)c1ccc2ccccc2c1 , the value recorded as its pIC50 is 3.34

Let us move to another entry and its pIC50.
Sample O=S(=O)(NCCN1CCN(CCNS(=O)(=O)c2ccc3ccccc3c2)CC1)c1ccc2ccccc2c1 ; pIC50 observed: 3.16
